The reported numbers originate from ChEMBL document CHEMBL2331221.

METHOD DESCRIPTION: Inhibition of bovine pancreatic chymotrypsin assessed as proteolysis using N-succinyl-Gly-Gly-Phe-p-nitroanilide substrate incubated for 30 mins prior to substrate addition
Set-up: species or system Bos taurus
pIC50: −log10 of the molar value.
MEASURED PARAMETER: pIC50

1. CC(C)(C)C(=O)Oc1ccc(S(=O)(=O)Nc2ccccc2C(=O)NCC(=O)O)cc1 :: 5.39

====

Species on record: Homo sapiens
METHOD DESCRIPTION: Inhibition of human pancreatic chymotrypsin assessed as proteolysis using N-succinyl-Ala-Ala-Pro-Phe-p-nitroanilide substrate incubated at 10 uM for 30 mins prior to substrate addition
Parameters: scale not given: the % may be the effect or the level left
MEASURED PARAMETER: Activity (%)

1. C/C=C1\NC(=O)[C@@H](NC(=O)[C@@H](NC(=O)[C@@H](COS(=O)(=O)[O-])OC)C(C)C)[C@@H](C)OC(=O)[C@H]([C@H](C)CC)NC(=O)[C@H](Cc2ccccc2)N(C)C(=O)[C@H](Cc2ccccc2)N2C(=O)[C@H](CC[C@H]2O)NC1=O.[Na+] [Symplostatin 5] :: 53.4
2. C/C=C1\NC(=O)[C@@H](NC(=O)[C@@H](NC(=O)[C@@H](COS(=O)(=O)O)OC)[C@@H](C)CC)[C@@H](C)OC(=O)[C@H]([C@H](C)CC)NC(=O)[C@H](Cc2ccccc2)N(C)C(=O)[C@H](Cc2ccccc2)N2C(=O)[C@H](CC[C@H]2O)NC1=O [symplostatin 7] :: 70.7
3. C/C=C1\NC(=O)[C@@H](NC(=O)[C@@H](NC(=O)[C@@H](COS(=O)(=O)O)OC)C(C)C)[C@@H](C)OC(=O)[C@H]([C@H](C)CC)NC(=O)[C@H](Cc2ccc(O)cc2)N(C)C(=O)[C@H](Cc2ccccc2)N2C(=O)[C@H](CC[C@H]2O)NC1=O [symplostatin 8] :: 69

====

METHOD DESCRIPTION: Inhibition of porcine pancreatic elastase assessed as proteolysis using N-succinyl-Ala-Ala-Ala-p-nitroanilide substrate incubated for 15 mins prior to substrate addition measured every 30 seconds
Parameters: species or system Sus scrofa
MEASURED PARAMETER: IC50 (nM)

1. CC(C)(C)C(=O)Oc1ccc(S(=O)(=O)Nc2ccccc2C(=O)NCC(=O)O)cc1 :: 2810

====

Species: Homo sapiens
METHOD DESCRIPTION: Inhibition of human pancreatic chymotrypsin assessed as proteolysis using N-succinyl-Ala-Ala-Pro-Phe-p-nitroanilide substrate incubated at 10 uM for 30 mins prior to substrate addition
Design: scale not given: the % may be the effect or the level left
Please note: Met applies when Activity is 70% or greater, and Not met applies otherwise.

1) C/C=C1\NC(=O)[C@@H](NC(=O)[C@H](CCc2ccc(O)cc2)NC(=O)[C@H](C)NC(=O)[C@H](O)COS(=O)(=O)O)[C@@H](C)OC(=O)[C@H](C(C)C)NC(=O)[C@H](Cc2ccc(O)cc2)N(C)C(=O)[C@H](Cc2ccccc2)N2C(=O)[C@H](CC[C@H]2O)NC1=O [LYNGBYASTATIN 4] :: Met
2) C/C=C1\NC(=O)[C@@H](NC(=O)[C@@H](NC(=O)[C@@H](COS(=O)(=O)O)OC)[C@@H](C)CC)[C@@H](C)OC(=O)[C@H]([C@H](C)CC)NC(=O)[C@H](Cc2ccc(O)cc2)N(C)C(=O)[C@H](Cc2ccccc2)N2C(=O)[C@H](CC[C@H]2O)NC1=O [symplostatin 10] :: Met
3) C/C=C1\NC(=O)[C@@H](NC(=O)[C@@H](NC(=O)[C@@H](COS(=O)(=O)O)OC)C(C)C)[C@@H](C)OC(=O)[C@H](C(C)C)NC(=O)[C@H](Cc2ccc(O)cc2)N(C)C(=O)[C@H](Cc2ccccc2)N2C(=O)[C@H](CC[C@H]2O)NC1=O [symplostatin 9] :: Met
4) C/C=C1\NC(=O)[C@@H](NC(=O)[C@@H](NC(=O)[C@@H](COS(=O)(=O)O)OC)C(C)C)[C@@H](C)OC(=O)[C@H](C(C)C)NC(=O)[C@H](Cc2ccccc2)N(C)C(=O)[C@H](Cc2ccccc2)N2C(=O)[C@H](CC[C@H]2O)NC1=O [symplostatin 6] :: Met
5) CC(C)(C)C(=O)Oc1ccc(S(=O)(=O)Nc2ccccc2C(=O)NCC(=O)O)cc1 :: Not met
